# TGT: human PKD2-L1, homomeric channel (Homo sapiens, UniProt Q9P0L9, D523N)
# Construct: full-length isoform 1 in pTracer CMV2, transiently transfected HEK 293T cells; homotetramer; whole-cell patch clamp
# Sequence (Q9P0L9 whole entry D523N, canonical isoform): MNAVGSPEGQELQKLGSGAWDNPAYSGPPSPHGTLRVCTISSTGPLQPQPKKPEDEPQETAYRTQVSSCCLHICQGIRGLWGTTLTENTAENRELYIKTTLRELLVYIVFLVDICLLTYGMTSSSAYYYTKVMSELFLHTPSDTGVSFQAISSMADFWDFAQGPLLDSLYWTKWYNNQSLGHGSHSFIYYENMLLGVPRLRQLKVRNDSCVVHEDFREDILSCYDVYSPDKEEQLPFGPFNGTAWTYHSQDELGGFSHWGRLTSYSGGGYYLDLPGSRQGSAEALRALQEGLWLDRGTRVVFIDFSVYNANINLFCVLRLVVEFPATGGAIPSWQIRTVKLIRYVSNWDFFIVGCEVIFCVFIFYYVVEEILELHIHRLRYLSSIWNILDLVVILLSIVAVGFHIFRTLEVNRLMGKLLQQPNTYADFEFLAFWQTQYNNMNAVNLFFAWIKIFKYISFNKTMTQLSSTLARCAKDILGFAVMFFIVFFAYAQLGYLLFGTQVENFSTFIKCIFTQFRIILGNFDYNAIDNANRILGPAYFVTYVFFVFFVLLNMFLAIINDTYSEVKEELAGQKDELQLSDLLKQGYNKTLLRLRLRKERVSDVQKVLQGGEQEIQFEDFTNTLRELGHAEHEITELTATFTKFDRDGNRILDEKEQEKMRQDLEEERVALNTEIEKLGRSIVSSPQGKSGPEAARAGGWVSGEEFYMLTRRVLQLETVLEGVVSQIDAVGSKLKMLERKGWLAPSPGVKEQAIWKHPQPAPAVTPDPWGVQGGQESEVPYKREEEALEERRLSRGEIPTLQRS
# RUN_DESCRIPTION: whole-cell patch clamp, current potentiation, voltage ramps
QUANTITY_NAME: EC50 (µM)
Lab book: enter the figure in µM, no units written.

Qu. Could you tell me which EC50 is on file for Clc1ccc(C(c2ccc(Cl)cc2)n2cc[n+](CC(OCc3ccc(Cl)cc3Cl)c3ccc(Cl)cc3Cl)c2)cc1 (stereo not shown) ?
Ans. 9

====

# TGT: human PKD2-L1 (Wt), homomeric channel (Homo sapiens)
# Construct: full-length isoform 1 in pTracer CMV2, transiently transfected HEK 293T cells; homotetramer; whole-cell patch clamp
# Sequence (Q9P0L9 whole entry, canonical isoform): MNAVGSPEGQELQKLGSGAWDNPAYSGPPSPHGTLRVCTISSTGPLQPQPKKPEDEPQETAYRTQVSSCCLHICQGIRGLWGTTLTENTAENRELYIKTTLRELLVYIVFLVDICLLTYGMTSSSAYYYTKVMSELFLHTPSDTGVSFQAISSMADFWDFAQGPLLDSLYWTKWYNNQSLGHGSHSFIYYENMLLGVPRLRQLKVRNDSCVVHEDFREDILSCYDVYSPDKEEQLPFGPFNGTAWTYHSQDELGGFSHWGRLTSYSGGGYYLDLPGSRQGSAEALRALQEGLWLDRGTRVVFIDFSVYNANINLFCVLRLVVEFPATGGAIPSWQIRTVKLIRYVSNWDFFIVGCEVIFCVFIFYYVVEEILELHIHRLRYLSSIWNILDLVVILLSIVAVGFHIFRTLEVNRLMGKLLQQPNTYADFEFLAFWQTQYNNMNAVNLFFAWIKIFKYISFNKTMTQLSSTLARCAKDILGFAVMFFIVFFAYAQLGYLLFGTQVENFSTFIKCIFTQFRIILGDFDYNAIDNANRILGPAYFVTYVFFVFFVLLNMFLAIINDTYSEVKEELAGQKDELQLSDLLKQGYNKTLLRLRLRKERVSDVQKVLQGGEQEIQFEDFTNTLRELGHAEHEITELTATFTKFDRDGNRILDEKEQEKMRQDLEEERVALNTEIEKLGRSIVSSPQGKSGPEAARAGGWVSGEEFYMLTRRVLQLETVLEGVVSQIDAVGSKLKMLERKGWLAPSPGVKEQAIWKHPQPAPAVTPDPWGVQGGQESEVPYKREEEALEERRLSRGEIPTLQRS
# RUN_DESCRIPTION: whole-cell patch clamp, current block, voltage ramps, Hill fit
QUANTITY_NAME: pIC50
Please keep in mind that pIC50 is minus log10 of the molar concentration; only the number is needed.

Qu. Could you tell me which pIC50 is on file for CCCCOc1cc(C(=O)NCCN(CC)CC)c2ccccc2n1 [dibucaine] ?
Ans. 4.51

Origin of values: paper PMC4922860
